Below, each entry is listed with its recorded solubility.
- TEST SUMMARY: Water solubility studies (salts dissolved in water at room temperature)
- Type: physicochemical
- EXPERIMENTAL SETUP: thermodynamic from solid, HCl salt, read-out: Solubility of the HCl salt in H2O

Would you please look over these solved cases?
[[record]]
compound = "COC1C=CC=C(C)C(=O)NC2=CC(=O)C(NCCCN3CCN(CCCNC4=C5CC(C)CC(OC)C(O)C(C)C=C(C)C(OC(N)=O)C(OC)C=CC=C(C)C(=O)NC(=CC4=O)C5=O)CC3)=C(CC(C)CC(OC)C(O)C(C)C=C(C)C1OC(N)=O)C2=O (stereo not shown)"
observed_result = "≥ 13000 µg/mL"

[[record]]
compound = "COC1/C=C\\C=C(/C)C(=O)NC2=CC(=O)C(NC(=O)c3ccncc3)=C(CC(C)CC(OC)C(O)C(C)/C=C(\\C)C1OC(N)=O)C2=O (stereo not shown)"
observed_result = "> 2000 µg/mL"

[[record]]
compound = "COC1/C=C\\C=C(/C)C(=O)NC2=CC(=O)C(c3ccccc3)=C(CC(C)CC(OC)C(O)C(C)/C=C(\\C)C1OC(N)=O)C2=O (stereo not shown)"
observed_result = "< 10 µg/mL"


// next item, solubility requested
Q. Quick one: solubility of COC1C=CC=C(C)C(=O)NC2=CC(=O)C(NCCCNCCCNC3=C4CC(C)CC(OC)C(O)C(C)C=C(C)C(OC(N)=O)C(OC)C=CC=C(C)C(=O)NC(=CC3=O)C4=O)=C(CC(C)CC(OC)C(O)C(C)C=C(C)C1OC(N)=O)C2=O (stereo not shown) ?
A. ≥ 13000 µg/mL
